- target: Aurora-A (Mus musculus)
- Construct: followed by the full length protein encoding the murine Aurora-A; polyhistidine (N); made in house; host or cells: sf9 insect cells
- Sequence (P97477 whole entry): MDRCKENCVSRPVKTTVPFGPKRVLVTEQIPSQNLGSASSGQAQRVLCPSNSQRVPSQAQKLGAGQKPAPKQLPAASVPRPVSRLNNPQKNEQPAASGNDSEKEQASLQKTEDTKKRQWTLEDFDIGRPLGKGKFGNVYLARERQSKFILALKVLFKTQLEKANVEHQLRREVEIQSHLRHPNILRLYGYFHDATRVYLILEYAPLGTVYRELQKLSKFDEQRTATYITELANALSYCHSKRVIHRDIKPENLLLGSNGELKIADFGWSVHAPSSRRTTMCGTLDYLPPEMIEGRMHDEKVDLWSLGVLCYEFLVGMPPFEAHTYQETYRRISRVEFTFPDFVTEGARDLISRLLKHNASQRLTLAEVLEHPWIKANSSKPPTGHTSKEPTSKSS
- run description: Aurora-A Screening Assay
- Type: biochemical, murine
- setup conditions: test concentration of 1 μM; read-out: Aurora-A percent inhibition
Would you mind telling me the reported inhibition at 1 µM of each entry?
The figure you give is taken to be in %; do not add the unit.

QUERY: Look up inhibition at 1 µM for this molecule: N#Cc1cnc2sc(C(=O)Nc3ccc(CN4CCCC(CO)C4)cc3)c3c2c1N(c1c(Cl)ccc2c1OCO2)C(=O)N3 (stereo not drawn) [Cpd 20]
RESULT: 21

QUERY: Can you look up the measured inhibition at 1 µM of Cc1cc(NC(=O)c2sc3ncc(C#N)c4c3c2NC(=O)N4c2c(Cl)ccc3c2OCO3)no1 [Cpd 34] for me?
RESULT: 29

QUERY: # lookup: inhibition at 1 µM of Cn1ccc(NC(=O)c2sc3ncc(C#N)c4c3c2NC(=O)N4c2c(Cl)ccc3c2OCO3)n1 [Cpd 39]
RESULT: 15
